- tested_on: CvkR (Alr3614) (Anabaena sp. PCC 7120, UniProt A0ACD6B984 19-168)
- Sequence (A0ACD6B984 entry or part of it): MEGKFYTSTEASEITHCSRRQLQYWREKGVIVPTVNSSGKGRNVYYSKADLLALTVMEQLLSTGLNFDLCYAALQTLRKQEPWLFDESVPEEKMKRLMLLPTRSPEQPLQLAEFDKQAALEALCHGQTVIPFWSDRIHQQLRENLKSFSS
- measurement_notes: EMSA; EMSA: 10 mM Tris-HCl pH 8.0, 25 mM MgCl2, 50 mM NaCl, 1 mM DTT, 1 mM EDTA, 50 ug/mL poly(dI-dC), 0.01% NP-40, 10% glycerol, 2 nM probe, 25 C 30 min; footprinting: 50 mM Tris-HCl pH 8.0, 100 mM KCl, 2.5 mM MgCl2, 0.2 mM DTT, 10% glycerol, 2 ug salmon sperm DNA, RT
- stated_conditions: protein: recombinant; tags: 6xHis-SUMO removed by Ulp1 (BamHI site; possible vector residues at N-term); chain copies: 2; label: 5'-biotin; blunt
readout_type: binding result

• PtnsB (dsDNA) DNA 1: AAAGGTTTTGTATATTTTCATAATGACAAATTGACTGTCGTTTTCTCCACGTTTAGAATAACATTATGTATTTATAAATT DNA 2: AATTTATAAATACATAATGTTATTCTAAACGTGGAGAAAACGACAGTCAATTTGTCATTATGAAAATATACAAAACCTTT = binds
• Pcas12k (dsDNA) DNA 1: AAGAAACATCCTATAGAAGCATCTTCTAAAACACATTAGTGCTTTGTATAACATTATGTGTTTTGTATGGTATTTTATTTTTA DNA 2: TAAAAATAAAATACCATACAAAACACATAATGTTATACAAAGCACTAATGTGTTTTAGAAGATGCTTCTATAGGATGTTTCTT = binds
• P43 (dsDNA) DNA 1: TGCTTTGTATAACATTATGTGTTTTGTATGGTATTTTATTTTT DNA 2: AAAAATAAAATACCATACAAAACACATAATGTTATACAAAGCA = binds
